Target: Cbx1 chromodomain, Cbx1-(20–73) (human, UniProt P83916 20-73)
Sequence (P83916 20-73): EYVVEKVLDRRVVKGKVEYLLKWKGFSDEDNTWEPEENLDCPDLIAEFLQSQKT
Test: fluorescence polarisation
Square brackets hold non-standard residues; d marks the D form. Ends that are not written are not given here. Lys(Me3) = C[N+](C)(C)CCCC[C@H](N)C(=O)O
I'd appreciate it if you could supply Kd values for the items below.
# unit: µM | format: bare number

State its Kd: ARTKQTARKSTGGKA (trimethyllysine at 9; fluorescein on the N-terminus) [H3K9Me3 peptide (ARTKQTARK(me3)STGGKA), fluorescein-labeled]
5

State its Kd: fluorescein-ARTKQAAR[Lys(Me3)]STGGKA [H3K9Me3T6A peptide (ARTKQAARK(me3)STGGKA), fluorescein-labeled]
45
